// data source = paper PMC5540273

// %Inh lookup, one value per entry
Tested on: TYK2(JH2domain-pseudokinase)
CONDITION_PARAMETERS: concentration: 1 μM, replicates: in singlicate; n = 1;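 also: KINOMEscan kinase panel screen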
Could you give me the number in %? Just the number is fine.

INPUT: Consider the molecule CCn1c(-c2ccccc2)nc2cnccc21 and give its measured %Inh.
OUTPUT: 45

---
INPUT: Returns the measured %Inh for the input molecule. Input: O=C(Nc1n[nH]c2nc(-c3ccco3)c(Br)cc12)C1CCN(Cc2ccccc2)C1.O=C(O)[C@H](O)[C@@H](O)C(=O)O (centres unmarked)
OUTPUT: 0

INPUT: # %Inh lookup, item Nc1ncnc2occ(-c3ccc4c(c3)CCN4C(=O)Cc3cc(F)ccc3F)c12
OUTPUT: 3

INPUT: Fill blank: measured %Inh of the molecule CC(=O)c1cccc(NC(=O)NC2CCN(c3ccnc(Nc4ccc(F)cc4)n3)C2)c1 (centres unmarked) is ____.
OUTPUT: 22

INPUT: Look up %Inh: Cc1cnc(N)c(/C=C/c2cncc(C(=O)NCCc3ccc(Cl)cc3Cl)c2)c1.Cl
OUTPUT: 9

INPUT: Quick one: %Inh of CS(=O)(=O)CCNCc1nc(-c2ccc3ncnc(Nc4ccc5c(cnn5Cc5ccccc5)c4)c3c2)cs1.Cl.Cl ?
OUTPUT: 57

INPUT: Value lookup for %Inh; key = CCCCc1nn2ncccc2c1-c1ccnc(NC2CC2)n1
OUTPUT: 32

INPUT: What does the data say about its %Inh? Entry: COc1ccc(Nc2nccc(N3CCC(NC(=O)C(C)c4ccc(Cl)cc4)C3)n2)cc1 (centres unmarked)
OUTPUT: 1

---

Tested on: ERBB2
CONDITION_PARAMETERS: concentration: 1 μM, replicates: in singlicate; n = 1
RESULT_TYPE: %Inh

INPUT: Suppose we examine the compound CS(=O)(=O)CCNCc1nc(-c2ccc3ncnc(Nc4ccc5c(cnn5Cc5ccccc5)c4)c3c2)cs1.Cl.Cl [GW569716] ; what %Inh value has been reported?
OUTPUT: 100%

INPUT: What value of %Inh has been reported for the following compound? O=C1NC(=O)C(c2ccc(Cl)cc2)=C1Nc1ccc(O)cc1 [SB-340867]
OUTPUT: 0%

INPUT: Query (compound): Cn1cncc1-c1cc2c(Nc3ccc(OCc4ccccc4)cc3)ncnc2cn1 [GW281179] ; field requested: %Inh
OUTPUT: 99.6%

INPUT: Look up %Inh: CC[C@@H]1CO[C@H](C(=O)Nc2ccccc2)CN1c1cc(-c2ccc3c(N)n[nH]c3c2)nc(NC)n1 [GSK2376236]
OUTPUT: 8%

INPUT: // %Inh lookup, key: Cl.Cl.Cl.N#Cc1ccc(CCNc2nccc(-c3cccc(CN4CCNCC4)c3)n2)cc1 [GSK2137462]
OUTPUT: 0%

INPUT: Tell me the measured %Inh of CC(=O)c1cccc(NC(=O)NC2CCN(c3ccnc(Nc4ccc(F)cc4)n3)C2)c1 (stereo not shown) [GSK1379710] , please.
OUTPUT: 15%

INPUT: # input compound: COc1ccc(Nc2nccc(N3CCC(NC(=O)C(C)c4ccc(Cl)cc4)CC3)n2)cc1 (stereo not shown) [GSK1379812] ; wanted: its %Inh
OUTPUT: 19%

INPUT: # input compound: Fc1ccc(-c2nc3n(c2-c2ccncc2)CCS3)cc1 [GI98581] ; wanted: its %Inh
OUTPUT: 0%

***
INPUT: Using the record for Cc1nccc(-c2c(-c3ccc(F)cc3)ncn2CCCN2CCOCC2)n1.Cl [SB-282975] , report its %Inh.
OUTPUT: 0%

INPUT: Name the reported %Inh value associated with the compound Cc1c(Cn2c(C)c(C)n3c(=O)cc(N4CCOCC4)nc23)cccc1C(F)(F)F [GSK2328680]
OUTPUT: 0%

---

Entries and their measured %Inh follow.
System: RSK3(Kin.Dom.1-N-terminal)
Construct: gene RPS6KA2
CONDITION_PARAMETERS: concentration: 1 μM, replicates: in singlicate; n = 1

# count of solved cases: 6
INPUT: What value of %Inh has been reported for the following molecule? Cc1ccc(NC(=O)Nc2ccccc2)cc1-c1ccc(C(=O)Nc2ccncc2)cc1
OUTPUT: 3%

INPUT: # query: %Inh of entry O=C(Nc1n[nH]c2nc(-c3cccs3)c(Br)cc12)C1CCCC1
OUTPUT: 0%

INPUT: Find the recorded %Inh belonging to CSc1ccc(-c2nc3n(c2-c2ccncc2)CCC3)cc1 and report it.
OUTPUT: 0%

INPUT: Name the recorded %Inh for Fc1ccc(-c2nc[nH]c2-c2ccncc2)cc1 .
OUTPUT: 0%

INPUT: Find the recorded %Inh belonging to CCn1c(-c2ccccc2)nc2cnccc21 and report it.
OUTPUT: 28%

INPUT: Request the reported %Inh associated with COC(=O)c1cccc(NC(=O)NC2CCN(c3ccnc(Nc4ccc(F)cc4)n3)C2)c1 (stereo not drawn)
OUTPUT: 3%

Others:
INPUT: Reported %Inh for c1ccc(-c2ccnc3[nH]ccc23)cc1 : what is it?
OUTPUT: 0%

INPUT: Would you mind telling me what %Inh value was observed for CN1c2ccc(-c3ccc(C(N)=O)cc3)cc2-c2[nH]ncc2S1(=O)=O ?
OUTPUT: 0%

INPUT: Name the recorded %Inh for CNc1nc(-c2ccc3c(N)n[nH]c3c2)cc(N2C[C@@H](C(=O)Nc3ccccc3)CC[C@H]2C)n1 .
OUTPUT: 7%

---

Test system: EPHB2
CONDITION_PARAMETERS: concentration: 1 μM, replicates: in singlicate; n = 1
RESULT_TYPE: %Inh (%)
Kindly provide the numeric value in % only, without the unit symbol.

Below are worked cases with known answers.
INPUT: What value of measured %Inh is listed for Cl.Cl.Cl.N#Cc1ccc(CCNc2nccc(-c3cccc(CN4CCNCC4)c3)n2)cc1 ?
OUTPUT: 0

INPUT: Requested field: %Inh. Item: COc1ccc(CSc2nnc(-c3ccc4nccn4c3)o2)cc1C(F)(F)F
OUTPUT: 0

INPUT: Which measured %Inh value corresponds to CCn1c(-c2c(N)noc2C)nc2cnccc21 ?
OUTPUT: 0

INPUT: Form field: reported %Inh of CC(C)c1cc(-c2ccc3c(N)n[nH]c3c2)nc(N)n1
OUTPUT: 0

Please find the next molecule below.
INPUT: Consider the molecule shown here: COc1ccc2cc(-c3nc(-c4ccccc4C(C)C)[nH]c3-c3ccncc3)ccc2c1 What is its recorded %Inh?
OUTPUT: 15

---

System: PIK3CG
CONDITION_PARAMETERS: concentration: 1 μM, replicates: in singlicate; n = 1
RESULT_TYPE: %Inh (%)
Please state the figure in %; there is no need to write the unit.

INPUT: Would you mind telling me what %Inh value was observed for CC(C)c1cc(-c2ccc3c(N)n[nH]c3c2)nc(N)n1 ?
OUTPUT: 5

INPUT: Which value of %Inh has been reported for CS(=O)(=O)CCNCc1nc(-c2ccc3ncnc(Nc4ccc5c(cnn5Cc5ccccc5)c4)c3c2)cs1.Cl.Cl in the records?
OUTPUT: 0

INPUT: Quick one: %Inh for O=c1cc(N2CCOCC2)nc2n(Cc3cccc(Cl)c3Cl)c3ccccc3n12 ?
OUTPUT: 1

// next entry
INPUT: What does the record list as %Inh for Cc1c(Cn2c3ccccc3n3c(=O)cc(N4CCOCC4)nc23)cccc1C(F)(F)F ?
OUTPUT: 0

---

Test system: YSK1
Construct: gene STK25
CONDITION_PARAMETERS: concentration: 1 μM, replicates: in singlicate; n = 1
Measured %Inh of individual entries
Output spec: scalar in %, unitless text.

Below are worked cases with known answers.
INPUT: Give the measured %Inh of COc1ccc(Nc2nccc(NCCNC(=O)Nc3cc(C)ccc3C)n2)cc1 .
OUTPUT: 0

INPUT: Give its %Inh value. Item: O=C1NC(=O)C(c2ccc(Cl)cc2)=C1Nc1ccc(O)cc1
OUTPUT: 8

INPUT: Entry CC[C@@H]1CO[C@H](C(=O)Nc2ccccc2)CN1c1cc(-c2ccc3c(N)n[nH]c3c2)nc(NC)n1 : reported %Inh = ?
OUTPUT: 6

Others:
INPUT: Sample COC(=O)c1cccc(NC(=O)NC2CCN(c3ccnc(Nc4ccc(F)cc4)n3)C2)c1 (centres unmarked) — what was its %Inh?
OUTPUT: 0

INPUT: Requested read-out: %Inh. Entry: CN1c2ccc(-c3ccc(C(N)=O)cc3)cc2-c2[nH]ncc2S1(=O)=O
OUTPUT: 0

---

Below is a list of entries, each paired with its recorded %Inh value.
Tested on: PIP5K1C
CONDITION_PARAMETERS: concentration: 1 μM, replicates: in singlicate; n = 1
The response must be a number in % with no trailing unit.

Some solved entries appear below for comparison.
INPUT: Tell me the measured %Inh of COc1ccc(Nc2nccc(-c3ccc(NC(=O)c4cc5cc(F)ccc5[nH]4)cc3)n2)cc1 [GSK1229496] , please.
OUTPUT: 54

INPUT: Dear colleague, I am looking for the recorded %Inh of the following compound: Cn1cnc2c(N)ncnc21 [SKF-97623]
OUTPUT: 0

INPUT: Can you look up the measured %Inh of Nc1nccc(-c2c(-c3ccc(F)cc3)ncn2C2CCN(Cc3ccccc3)CC2)n1 [SB-219980] for me?
OUTPUT: 15

INPUT: Record request: %Inh value, item Cc1ccc(-c2nc(Nc3ccncc3)c3ccccc3n2)s1 [GSK189015]
OUTPUT: 22

For the next question, use this compound.
INPUT: Using the record for Fc1ccc(-c2nc3n(c2-c2ccncc2)CCS3)cc1 [GI98581] , report its %Inh.
OUTPUT: 47
